# Experiment summary: xn = mol fraction of the nth substance listed, in the solute-free solvent
# Condition notes: 318.15 K; x2 = 0.8
Each entry gets No if its solubility (g/100 g solution) stays under 10, and Yes if its solubility (g/100 g solution) is 10 or above.

{"Molecule": "CC(=O)OC(c1ccccc1)C(Cl)(Cl)Cl (stereo not given) + CCO + O", "Label class": "Yes"}
{"Molecule": "CCCCOc1ccc(C(=O)CCN2CCCCC2)cc1.Cl + CCO + CCCCCC", "Label class": "Yes"}
{"Molecule": "O=C1CCc2ccc(OCCCCN3CCN(c4cccc(Cl)c4Cl)CC3)cc2N1 + CCC(C)=O + CCCO", "Label class": "No"}
{"Molecule": "O=C1CCc2ccc(OCCCCN3CCN(c4cccc(Cl)c4Cl)CC3)cc2N1 + CCC(C)=O + CC(C)=O", "Label class": "No"}
{"Molecule": "CCCCOc1ccc(C(=O)CCN2CCCCC2)cc1.Cl + CCO + O", "Label class": "Yes"}

---

# Experiment summary: xn = mol fraction of the nth substance listed, in the solute-free solvent
# Condition notes: 298.15 K; x2 = 0.9
Overview of recorded solubility (g/100 g solution) for various molecules
Quantity name: solubility (g/100 g solution)

{"Molecule": "O=C1CCc2ccc(OCCCCN3CCN(c4cccc(Cl)c4Cl)CC3)cc2N1 + CCC(C)=O + CC(C)=O", "Quantity name": "solubility (g/100 g solution)", "Value": 2.54}
{"Molecule": "CCCCOc1ccc(C(=O)CCN2CCCCC2)cc1.Cl + CO + C1CCOC1", "Quantity name": "solubility (g/100 g solution)", "Value": 54.7}
{"Molecule": "CC(=O)OC(c1ccccc1)C(Cl)(Cl)Cl (stereo not given) + CC(C)O + O", "Quantity name": "solubility (g/100 g solution)", "Value": 5.1}
{"Molecule": "CC(=O)OC(c1ccccc1)C(Cl)(Cl)Cl (stereo not given) + CCO + O", "Quantity name": "solubility (g/100 g solution)", "Value": 5.46}
{"Molecule": "COC1=CC(=O)CC(C)C12Oc1c(Cl)c(OC)cc(OC)c1C2=O (stereo not given) + CC(=O)CC(C)C + CC(C)O", "Quantity name": "solubility (g/100 g solution)", "Value": 0.955}
{"Molecule": "O=C(O)c1ccc(C(=O)O)o1 + C1CCOC1 + O", "Quantity name": "solubility (g/100 g solution)", "Value": 3.67}
{"Molecule": "COC1=CC(=O)CC(C)C12Oc1c(Cl)c(OC)cc(OC)c1C2=O (stereo not given) + CCC(C)=O + CC(C)O", "Quantity name": "solubility (g/100 g solution)", "Value": 2.58}
{"Molecule": "CCCCOc1ccc(C(=O)CCN2CCCCC2)cc1.Cl + CCO + CCOC(C)=O", "Quantity name": "solubility (g/100 g solution)", "Value": 39}
{"Molecule": "CC(=O)OC(c1ccccc1)C(Cl)(Cl)Cl (stereo not given) + CC(=O)O + O", "Quantity name": "solubility (g/100 g solution)", "Value": 10.9}
{"Molecule": "CCCCOc1ccc(C(=O)CCN2CCCCC2)cc1.Cl + CCO + O", "Quantity name": "solubility (g/100 g solution)", "Value": 43.8}

---

Overview of recorded solubility (g/100 g solution) for various molecules
# Experiment summary: xn = mol fraction of the nth substance listed, in the solute-free solvent
# Condition notes: 323.15 K; x2 = 0.5

{"Molecule": "CC(=O)OC(c1ccccc1)C(Cl)(Cl)Cl (stereo not given) + CC(=O)O + O", "solubility (g/100 g solution)": 5.28}
{"Molecule": "O=C(O)c1ccc(C(=O)O)o1 + C1CCOC1 + O", "solubility (g/100 g solution)": 8.47}
{"Molecule": "O=C(O)c1ccc(C(=O)O)o1 + O + COCCOC", "solubility (g/100 g solution)": 6.69}
{"Molecule": "COC1=CC(=O)CC(C)C12Oc1c(Cl)c(OC)cc(OC)c1C2=O (stereo not given) + CC(=O)CC(C)C + CC(C)O", "solubility (g/100 g solution)": 1.62}
{"Molecule": "O=C(O)c1ccc(C(=O)O)o1 + C1COCCO1 + O", "solubility (g/100 g solution)": 5.75}

---

# Experiment summary: xn = mol fraction of the nth substance listed, in the solute-free solvent
# Condition notes: 278.15 K; x2 = 0.4
Overview of recorded solubility (g/100 g solution) for various compounds

{"Compound": "CCCCOc1ccc(C(=O)CCN2CCCCC2)cc1.Cl + CCO + O", "solubility (g/100 g solution)": 33.1}
{"Compound": "O=C1CCc2ccc(OCCCCN3CCN(c4cccc(Cl)c4Cl)CC3)cc2N1 + CCC(C)=O + CC(C)=O", "solubility (g/100 g solution)": 1.01}
{"Compound": "CCCCOc1ccc(C(=O)CCN2CCCCC2)cc1.Cl + CCO + CCOC(C)=O", "solubility (g/100 g solution)": 11.9}
{"Compound": "O=C1CCc2ccc(OCCCCN3CCN(c4cccc(Cl)c4Cl)CC3)cc2N1 + CCC(C)=O + CCCO", "solubility (g/100 g solution)": 1.6}
{"Compound": "CCCCOc1ccc(C(=O)CCN2CCCCC2)cc1.Cl + CO + C1CCOC1", "solubility (g/100 g solution)": 16.3}
{"Compound": "CCCCOc1ccc(C(=O)CCN2CCCCC2)cc1.Cl + CCO + CCCCCC", "solubility (g/100 g solution)": 10.6}
{"Compound": "O=C1CCc2ccc(OCCCCN3CCN(c4cccc(Cl)c4Cl)CC3)cc2N1 + CCC(C)=O + CCOC(C)=O", "solubility (g/100 g solution)": 0.73}

---

Overview of recorded solubility (g/100 g solution) for various molecules
# Experiment summary: xn = mol fraction of the nth substance listed, in the solute-free solvent
# Condition notes: 313.15 K; x2 = 0.7

{"Molecule": "CCCCOc1ccc(C(=O)CCN2CCCCC2)cc1.Cl + CCO + CCOC(C)=O", "solubility (g/100 g solution)": 39.8}
{"Molecule": "O=C1CCc2ccc(OCCCCN3CCN(c4cccc(Cl)c4Cl)CC3)cc2N1 + CCC(C)=O + CCCO", "solubility (g/100 g solution)": 6.23}
{"Molecule": "COC1=CC(=O)CC(C)C12Oc1c(Cl)c(OC)cc(OC)c1C2=O (stereo not drawn) + CC(=O)CC(C)C + CC(C)O", "solubility (g/100 g solution)": 1.37}
{"Molecule": "CC(=O)OC(c1ccccc1)C(Cl)(Cl)Cl (stereo not drawn) + CCO + O", "solubility (g/100 g solution)": 7.47}
{"Molecule": "O=C(O)c1ccc(C(=O)O)o1 + O + COCCOCCOC", "solubility (g/100 g solution)": 6.69}
{"Molecule": "O=C1CCc2ccc(OCCCCN3CCN(c4cccc(Cl)c4Cl)CC3)cc2N1 + CCC(C)=O + CCOC(C)=O", "solubility (g/100 g solution)": 3.65}
{"Molecule": "O=C(O)c1ccc(C(=O)O)o1 + O + COCCOC", "solubility (g/100 g solution)": 6.08}
{"Molecule": "CCCCOc1ccc(C(=O)CCN2CCCCC2)cc1.Cl + CCO + O", "solubility (g/100 g solution)": 54.3}
{"Molecule": "COC1=CC(=O)CC(C)C12Oc1c(Cl)c(OC)cc(OC)c1C2=O (stereo not drawn) + CC(C)=O + CC(C)O", "solubility (g/100 g solution)": 3.65}
{"Molecule": "CC(=O)OC(c1ccccc1)C(Cl)(Cl)Cl (stereo not drawn) + CC(=O)O + O", "solubility (g/100 g solution)": 9.86}
{"Molecule": "CC(=O)OC(c1ccccc1)C(Cl)(Cl)Cl (stereo not drawn) + CC(C)O + O", "solubility (g/100 g solution)": 9.44}
{"Molecule": "O=C(O)c1ccc(C(=O)O)o1 + C1CCOC1 + O", "solubility (g/100 g solution)": 7.43}
{"Molecule": "COC1=CC(=O)CC(C)C12Oc1c(Cl)c(OC)cc(OC)c1C2=O (stereo not drawn) + CCC(C)=O + CC(C)O", "solubility (g/100 g solution)": 2.97}
{"Molecule": "CCCCOc1ccc(C(=O)CCN2CCCCC2)cc1.Cl + CCO + CCCCCC", "solubility (g/100 g solution)": 37.9}
{"Molecule": "O=C(O)c1ccc(C(=O)O)o1 + C1COCCO1 + O", "solubility (g/100 g solution)": 3.51}
{"Molecule": "O=C(O)C1CSCN1 (stereo not drawn) + O + CC#N", "solubility (g/100 g solution)": 1.17}
{"Molecule": "O=C1CCc2ccc(OCCCCN3CCN(c4cccc(Cl)c4Cl)CC3)cc2N1 + CCC(C)=O + CC(C)=O", "solubility (g/100 g solution)": 4.23}
{"Molecule": "CCCCOc1ccc(C(=O)CCN2CCCCC2)cc1.Cl + CO + C1CCOC1", "solubility (g/100 g solution)": 53}
